Data origin: PubChem BioAssay AID212

tested on: BDF1 mice, colon carcinoma 38 sc, T/C %; assay: NCI In Vivo Anticancer Drug Screen. Data for tumor model Colon Carcinoma 38 (subcutaneous) in B6D2F1 (BDF1) mice; conditions: endpoint: median tumor weight (est.); dose: 400.0 mg/kg/injection; schedule: Q07DX002 (ip); vehicle: saline; higher = larger tumour
Inconclusive results are not listed.
Reported values of T/C for individual entries
measurement label: T/C

# molecule, test target, measurement label, reported value
measured = [
    ("Cc1nnc2ncccn12", "BDF1 mice, colon carcinoma 38 sc, T/C %", "T/C", "81 % of control"),
    ("O=C1N(CC2CO2)CCN1CC1CO1 (stereo not given)", "BDF1 mice, colon carcinoma 38 sc, T/C %", "T/C", "29 % of control"),
    ("Nc1cccc(=O)[nH]1", "BDF1 mice, colon carcinoma 38 sc, T/C %", "T/C", "91 % of control"),
    ("C[C@@H](CN1CC(=O)NC(=O)C1)N1CC(=O)NC(=O)C1", "BDF1 mice, colon carcinoma 38 sc, T/C %", "T/C", "93 % of control"),
    ("NC(=O)NO", "BDF1 mice, colon carcinoma 38 sc, T/C %", "T/C", "88 % of control"),
    ("Cc1cc2nc3c(=O)[nH]c(=O)nc-3n(CC(O)C(O)C(O)C(O)CO)c2cc1C (stereo not given)", "BDF1 mice, colon carcinoma 38 sc, T/C %", "T/C", "100 % of control"),
    ("O=C(NO)c1ccccc1", "BDF1 mice, colon carcinoma 38 sc, T/C %", "T/C", "70 % of control"),
    ("CONc1ccn(C2OC(CO)C(O)C2O)c(=O)n1 (stereo not given)", "BDF1 mice, colon carcinoma 38 sc, T/C %", "T/C", "91 % of control"),
    ("CCCCCCCCCCCCCCCCCCCCCC(=O)Nc1ccn(C2OC(CO)C(O)C2O)c(=O)n1 (stereo not given)", "BDF1 mice, colon carcinoma 38 sc, T/C %", "T/C", "29 % of control"),
    ("N/C=N/O", "BDF1 mice, colon carcinoma 38 sc, T/C %", "T/C", "56 % of control"),
    ("O=Cc1ccc(C(Cl)(Cl)Cl)cc1", "BDF1 mice, colon carcinoma 38 sc, T/C %", "T/C", "82 % of control"),
    ("COc1ccc(C[C@H](N)C(=O)NC2C(CO)OC(n3cnc4c(N(C)C)ncnc43)C2O)cc1 (stereo not given in full)", "BDF1 mice, colon carcinoma 38 sc, T/C %", "T/C", "21 % of control"),
    ("CN(CO)c1nc(N(C)CO)nc(N(C)CO)n1", "BDF1 mice, colon carcinoma 38 sc, T/C %", "T/C", "4 % of control"),
    ("CCCCCC[C@@H](O)C/C=C\\CCCCCCCC(=O)OCCO", "BDF1 mice, colon carcinoma 38 sc, T/C %", "T/C", "117 % of control"),
    ("O=C(O)CCc1cccc2c(=O)cc(-c3ccccc3)oc12", "BDF1 mice, colon carcinoma 38 sc, T/C %", "T/C", "120 % of control"),
]

###

system: BDF1 mice, colon carcinoma 38 sc, T/C %; assay: NCI In Vivo Anticancer Drug Screen. Data for tumor model Colon Carcinoma 38 (subcutaneous) in B6D2F1 (BDF1) mice; settings: endpoint: median tumor weight (est.); dose: 400.0 mg/kg/injection; schedule: Q07DX002 (ip); vehicle: suspension in saline; higher = larger tumour
Results filed as inconclusive are left out.

# molecule, T/C
data = [
    ("NC(=S)N/N=C/c1ccc(O)cn1", "105 % of control"),
    ("C=C(NC(=O)C(=C)NC(=O)c1csc(C2=NC3c4csc(n4)C4NC(=O)c5csc(n5)C(C(C)(O)C(C)O)NC(=O)C5CSC(=N5)/C(=C/C)NC(=O)C(C(C)O)NC(=O)c5csc(n5)C3(CC2)NC(=O)C(C)NC(=O)C(=C)NC(=O)C(=C)NC(=O)C(C(C)C)NC2C=Cc3c(C(C)O)cc(nc3C2O)C(=O)OC4C)n1)C(N)=O (configuration not stated)", "86 % of control"),
    ("O=C(NO)c1ccccc1", "103 % of control"),
    ("C1OC1CO[C@@H]1CO[C@H]2[C@@H]1OC[C@H]2OCC1CO1 (some centres not stated)", "70 % of control"),
    ("CN(C)[C@@H]1C(=O)C(C(N)=O)=C(O)[C@@]2(O)C(=O)C3=C(O)c4c(O)ccc(Cl)c4[C@@](C)(O)[C@H]3C[C@@H]12", "65 % of control"),
    ("NC(=S)c1ncn(C2OC(CO)C(O)C2O)c1N (configuration not stated)", "67 % of control"),
    ("CC(C)[C@](O)(C(=O)OCC1=CCN2CC[C@@H](O)[C@@H]12)[C@H](C)O", "95 % of control"),
]
